# System: 2Sp-muMax20 (muMax20 with two 2,6-bis(methyl)pyridine Cys staples)
# method-summary: PBM 8-mer E-score (E-score (rank enrichment, -0.5 to 0.5)); higher = stronger preferential binding
The full ranking holds about 33,000 sequences; the median of “E-score (rank enrichment, -0.5 to 0.5)” is about -0.0043, and the highest 2% start at about 0.24. The sample holds the highest values, similar sequences and a random draw of the others, so the mix is not that of the screen.
result-type: PBM 8-mer E-score
Answers are plain numbers.

Example entries begin here.
sequence-string	tgt	PBM 8-mer E-score
GGATGTTA	2Sp-muMax20 (muMax20 with two 2,6-bis(methyl)pyridine Cys staples)	0.196
ATATGTTA	2Sp-muMax20 (muMax20 with two 2,6-bis(methyl)pyridine Cys staples)	0.229
GATAATCC	2Sp-muMax20 (muMax20 with two 2,6-bis(methyl)pyridine Cys staples)	-0.0127
CTCCTACA	2Sp-muMax20 (muMax20 with two 2,6-bis(methyl)pyridine Cys staples)	0.0705
ACAGCCAC	2Sp-muMax20 (muMax20 with two 2,6-bis(methyl)pyridine Cys staples)	-0.0111

Okay, now this sequence:
## Task Entry CTCGGTGC : reported PBM 8-mer E-score = ?
## Result -0.163

* * *

# Tested on: 2Sp-muMax20 (muMax20 with two 2,6-bis(methyl)pyridine Cys staples)
# method-summary: PBM 8-mer E-score (E-score (rank enrichment, -0.5 to 0.5)); higher = stronger preferential binding
Whole data set: some 33,000 sequences, median “E-score (rank enrichment, -0.5 to 0.5)” near -0.0043, cut for the highest 2% near 0.24. What follows is part of a selection rich in the highest values, with near analogues and random picks from the rest.
result-type: PBM 8-mer E-score

sequence-string	PBM 8-mer E-score
CTATTTCA	0.126
AGACTCAA	-0.111

Please report PBM 8-mer E-score for every entry that follows.
1. CCGTTACC
2. AACGTTGG
3. CAAGGCCG

## Result
1: -0.0555; 2: -0.0574; 3: -0.065

* * *

# Tested on: 2Sp-muMax20 (muMax20 with two 2,6-bis(methyl)pyridine Cys staples)
# method-summary: PBM 8-mer E-score (E-score (rank enrichment, -0.5 to 0.5)); higher = stronger preferential binding
The full ranking holds about 33,000 sequences; the median of “E-score (rank enrichment, -0.5 to 0.5)” is about -0.0043, and the highest 2% start at about 0.24. Many of the other results were omitted from the sample, so the highest values are more common in it than they were.
Label t when PBM 8-mer E-score is at or above 0.1; otherwise label f.

Past entries and their recorded results:
sequence-string	category-label
CTAGTATA	t
TGACCTAA	f
CTGTATCA	f
CCATATCA	t

## Task Is PBM 8-mer E-score for CTACATTC at or above 0.1?
## Result f

## Task Is PBM 8-mer E-score for CTACTTTA at or above 0.1?
## Result f

## Task Is PBM 8-mer E-score for GATGCCGA at or above 0.1?
## Result f

## Task Is PBM 8-mer E-score for GCAGATAC at or above 0.1?
## Result f

## Task Is PBM 8-mer E-score for ATACTTTG at or above 0.1?
## Result t

## Task Is PBM 8-mer E-score for AGTAGGAG at or above 0.1?
## Result f
